# TESTED SYSTEM: cynomolgus PSMA, full-length, on CHO cells (cynomolgus, UniProt A0A2K5VNZ0 1-750)
# PROTOCOL DESCRIPTION: cell-based or functional assay
REPORTED ENDPOINT: His-ZAP cell killing, cyno PSMA Average EC50 (nM)
I only need the number, in nM, no unit after it.

{"columns": ["BINDER", "VALUE MEASURED"],
 "data": [
  ["1.16-6GS-2.1 (bispecific antibody, linker (G4S)6) EVQLLESGGGLVQPGGSLRLSCAASGFSFSSYALSWVRQAPGKGLEWVSSIGENNHTTDYADTVKGRFTISRDNSKNTLYLQMNSLRVEDTAVYYCVKDGVHWGQGTLVTVSSGGGGSGGGGSGGGGSGGGGSGGGGSGGGGSEVQLVESGGGVVQPGRSLRLSCAASGFSFSGYGMHWVRQAPGKGLEWVAYISYDGSNKYYADSVKGRFTISRDNSKNTLYLQMNSLRAEDTAVYYCAKDPAWGLRLGESSSYDFDIWGQGTMVTVSS", 0.013]
]}

// moving on: another record for His-ZAP cell killing, cyno PSMA Average EC50
Supply measured His-ZAP cell killing, cyno PSMA Average EC50 of 1.11-6GS-2.1 (bispecific antibody, linker (G4S)6; also called 1.11-2.1) EVQLLESGGGLVQPGGSLRLSCAASGFSFSSYALSWVRQAPGKGLEWVSSIGENNDTTDYADNVKGRFTISRDNSKNTLYLQMNSLRVEDTAVYYCVKDGVHWGQGTLVTVSSGGGGSGGGGSGGGGSGGGGSGGGGSGGGGSEVQLVESGGGVVQPGRSLRLSCAASGFSFSGYGMHWVRQAPGKGLEWVAYISYDGSNKYYADSVKGRFTISRDNSKNTLYLQMNSLRAEDTAVYYCAKDPAWGLRLGESSSYDFDIWGQGTMVTVSS in your reply.
0.012
